Below are compounds with their MIC as measured on E. coli J53.
Give bare numbers, in µg/mL.

> print(dat)
                               input.smiles    tested.on  quantity.name  numeric.result
1  C[C@H]1[C@H](NC(=O)/C(=N\OC(C)(C)C(=O)O)c2csc(N)n2)C(=O)N1S(=O)(=O)O  E. coli J53            MIC            0.12
2                 C[C@@H]1O[C@@H]1P(=O)(O)O  E. coli J53            MIC             0.5
3  CO/N=C(\C(=O)N[C@@H]1C(=O)N2C(C(=O)O)=C(COC(C)=O)CS[C@H]12)c1csc(N)n1  E. coli J53            MIC            0.06

Now take the following compound into account.
# input compound: CO/N=C(\C(=O)N[C@@H]1C(=O)N2C(C(=O)O)=C(COC(N)=O)CS[C@H]12)c1ccco1 ; wanted: its MIC
16

---

# TESTED ON: CMY-2 (Klebsiella pneumoniae, UniProt Q48434)
# Construct: were amplified without a signal peptide and cloned into the pET28a; His8 (N); made in house; host or cells: E. coli BL21(DE3)
# Sequence (Q48434 21-381): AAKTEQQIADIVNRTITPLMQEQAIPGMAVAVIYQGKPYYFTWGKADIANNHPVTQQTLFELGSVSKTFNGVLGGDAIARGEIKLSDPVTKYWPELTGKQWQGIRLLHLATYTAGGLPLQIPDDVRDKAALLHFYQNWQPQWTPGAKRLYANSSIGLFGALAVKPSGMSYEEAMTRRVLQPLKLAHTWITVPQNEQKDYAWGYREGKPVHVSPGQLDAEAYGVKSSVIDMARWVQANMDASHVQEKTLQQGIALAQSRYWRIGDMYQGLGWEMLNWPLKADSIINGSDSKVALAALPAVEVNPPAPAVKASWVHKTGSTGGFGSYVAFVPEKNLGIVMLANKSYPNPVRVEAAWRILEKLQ
# ASSAY DETAILS: Ki by direct competition assay with nitrocefin, CMY-2
# Format: biochemical
QUANTITY NAME: pKi
Answers are plain numbers, as −log10 of the molar value.

# input molecule: C[C@]1(Cn2ccnn2)[C@H](C(=O)O)N2C(=O)C[C@H]2S1(=O)=O [TAZ, tazobactam] ; wanted: its pKi
6.12
